measurement_target: SAP (Homo sapiens)
Sequence (P02743 20-223): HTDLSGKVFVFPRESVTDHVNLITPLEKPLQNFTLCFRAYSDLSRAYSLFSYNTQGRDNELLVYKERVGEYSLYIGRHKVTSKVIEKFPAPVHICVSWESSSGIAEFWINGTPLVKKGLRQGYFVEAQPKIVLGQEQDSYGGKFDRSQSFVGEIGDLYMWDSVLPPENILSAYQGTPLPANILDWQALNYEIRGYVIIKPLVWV
procedure_summary: Inhibition of binding of 125I radiolabelled SAP to Neisseria meningitidis immobilized in microtitre plates
Set-up: 5 μl of radiolabelled SAP in TN; from tissue
recorded_conditions: compound 20 μM; read-out: Percent inhibition of binding of radiolabelled SAP to immobilized Neisseria meningitidis
measured_metric: inhibition at 20 µM

See these solved cases before continuing.
compound	inhibition at 20 µM
COc1cccc(OCC(=O)N2CCC[C@@H]2C(=O)O)c1OCC(=O)N1CCC[C@@H]1C(=O)O	92%
O=C(O)[C@H]1CCCN1C(=O)Cc1ccc(CC(=O)N2CCC[C@@H]2C(=O)O)c2ccccc12	89%

// batch mode: one inhibition at 20 µM value per listed entry
1. NCCOP(=O)(O)O [Phosphoethanolamine, reference compound]
2. O=C(O)[C@H]1CCCN1C(=O)Cc1cccc(CC(=O)N2CCC[C@@H]2C(=O)O)c1
3. O=C(O)[C@H]1CCCN1C(=O)COc1ccccc1OCC(=O)N1CCC[C@@H]1C(=O)O
4. O=C(O)[C@H]1CCCN1C(=O)Cc1ccc(CC(=O)N2CCC[C@@H]2C(=O)O)cc1
5. O=C(O)[C@H]1CCCN1C(=O)CCCCC(=O)N1CCC[C@@H]1C(=O)O
6. C[N+](C)(C)CCOP(=O)([O-])O [Phosphocholine, reference compound]

Response given:
["32%", "92%", "87%", "73%", "74%", "4%"]

Take each entry in turn and give its inhibition at 20 µM.
1. C[C@H](CS)C(=O)N1CCC[C@@H]1C(=O)O
2. O=C(O)[C@H]1CCCN1C(=O)COc1ccc(OCC(=O)N2CCC[C@@H]2C(=O)O)cc1

Response given:
50%
74%
